Target: T1, full-length mature cynomolgus EMR2 (residues Q24-N816) with N-terminal aspartic acid/lysine epitope tag, … (cynomolgus monkey (Macaca fascicularis), UniProt A0A2K5WL23 21-816); also: test concentration or dose not given here
T1 sequence: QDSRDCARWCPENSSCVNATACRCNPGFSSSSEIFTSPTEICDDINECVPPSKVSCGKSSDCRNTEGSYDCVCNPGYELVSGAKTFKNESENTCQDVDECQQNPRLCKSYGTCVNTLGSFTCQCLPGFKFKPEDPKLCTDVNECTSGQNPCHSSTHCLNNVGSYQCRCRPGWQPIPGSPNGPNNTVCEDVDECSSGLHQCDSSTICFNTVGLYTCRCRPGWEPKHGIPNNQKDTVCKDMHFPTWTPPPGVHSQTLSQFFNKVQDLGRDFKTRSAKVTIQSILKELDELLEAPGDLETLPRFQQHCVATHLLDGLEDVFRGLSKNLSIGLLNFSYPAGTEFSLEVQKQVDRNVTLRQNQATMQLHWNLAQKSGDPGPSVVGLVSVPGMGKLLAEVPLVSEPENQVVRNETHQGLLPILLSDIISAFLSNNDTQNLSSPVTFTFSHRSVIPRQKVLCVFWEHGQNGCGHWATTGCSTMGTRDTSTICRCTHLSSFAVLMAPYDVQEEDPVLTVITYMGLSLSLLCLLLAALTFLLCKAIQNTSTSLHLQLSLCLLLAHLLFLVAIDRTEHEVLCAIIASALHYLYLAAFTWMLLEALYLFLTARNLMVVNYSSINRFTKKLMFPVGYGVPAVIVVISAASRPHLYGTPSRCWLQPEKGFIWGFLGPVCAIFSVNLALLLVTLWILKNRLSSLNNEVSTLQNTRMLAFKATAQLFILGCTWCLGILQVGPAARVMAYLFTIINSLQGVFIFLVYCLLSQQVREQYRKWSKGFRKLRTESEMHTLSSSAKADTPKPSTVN
Test: cell-based or functional assay
property measured: % live, FAB-saporin killing assay
Note: state the figure and append the unit.

Qu. GET /values?readout=% live, FAB-saporin killing assay&item= SC93.252 (antibody, IgG2a, V domains shown, murine, IgG2a) VH: QVQLQQSDAELVKPGASVKISCKVSGFSFTDHTIHWMRQRPEQGLEWIGYIYPTDGNTRYNEKFKGKASLTADKSSTTAYMQLSSLTSEDSAVYFCAKRGYYWYFDVWGTGTTVTVSS VL: DIQMTQASSYLSVSLGGRVTITCKASDHINNWLAWYQQKPGNAPRLLISHATNLETGFPSRFSGSGSGKDYTLSITSLQTEDVATYYCQQYWNIPYTFGGGTKLEIE
Ans. 9.42%
